- Test system: human Cav3.1 Cav3.2 or Cav3.3 channel
- assay procedure: In vitro assay T channel (FLIPR, Ca2+-induced calcium fluorescence)
- Type: cell-based
- experimental setup: HEK293 cells expressing human Cav3.1, Cav3.2 or Cav3.3; 10 mM Ca2+; subtype not specified in Table 1; read-out: IC50 (T channel antagonistic activity)
pIC50: −log10 of the molar value.
property name: pIC50

compound="COc1ccc(OC)c2[nH]c(CCCN(C)CCC3(OC(=O)C(C)C)CC4CCC3C=C4c3ccccc3)nc12 (single isomer, unassigned) [Example 2A]" value_observed=6.11
compound="COc1ccc(OC)c2[nH]c(CCCN(C)CCC3(OC(=O)C(C)C)CC4CCC3C=C4c3ccccc3)nc12 (single isomer, unassigned) [Example 3A]" value_observed=6.10

----------
- assay target: human Cav1.2 channel (Homo sapiens, UniProt Q13936)
- Sequence (Q13936 whole entry): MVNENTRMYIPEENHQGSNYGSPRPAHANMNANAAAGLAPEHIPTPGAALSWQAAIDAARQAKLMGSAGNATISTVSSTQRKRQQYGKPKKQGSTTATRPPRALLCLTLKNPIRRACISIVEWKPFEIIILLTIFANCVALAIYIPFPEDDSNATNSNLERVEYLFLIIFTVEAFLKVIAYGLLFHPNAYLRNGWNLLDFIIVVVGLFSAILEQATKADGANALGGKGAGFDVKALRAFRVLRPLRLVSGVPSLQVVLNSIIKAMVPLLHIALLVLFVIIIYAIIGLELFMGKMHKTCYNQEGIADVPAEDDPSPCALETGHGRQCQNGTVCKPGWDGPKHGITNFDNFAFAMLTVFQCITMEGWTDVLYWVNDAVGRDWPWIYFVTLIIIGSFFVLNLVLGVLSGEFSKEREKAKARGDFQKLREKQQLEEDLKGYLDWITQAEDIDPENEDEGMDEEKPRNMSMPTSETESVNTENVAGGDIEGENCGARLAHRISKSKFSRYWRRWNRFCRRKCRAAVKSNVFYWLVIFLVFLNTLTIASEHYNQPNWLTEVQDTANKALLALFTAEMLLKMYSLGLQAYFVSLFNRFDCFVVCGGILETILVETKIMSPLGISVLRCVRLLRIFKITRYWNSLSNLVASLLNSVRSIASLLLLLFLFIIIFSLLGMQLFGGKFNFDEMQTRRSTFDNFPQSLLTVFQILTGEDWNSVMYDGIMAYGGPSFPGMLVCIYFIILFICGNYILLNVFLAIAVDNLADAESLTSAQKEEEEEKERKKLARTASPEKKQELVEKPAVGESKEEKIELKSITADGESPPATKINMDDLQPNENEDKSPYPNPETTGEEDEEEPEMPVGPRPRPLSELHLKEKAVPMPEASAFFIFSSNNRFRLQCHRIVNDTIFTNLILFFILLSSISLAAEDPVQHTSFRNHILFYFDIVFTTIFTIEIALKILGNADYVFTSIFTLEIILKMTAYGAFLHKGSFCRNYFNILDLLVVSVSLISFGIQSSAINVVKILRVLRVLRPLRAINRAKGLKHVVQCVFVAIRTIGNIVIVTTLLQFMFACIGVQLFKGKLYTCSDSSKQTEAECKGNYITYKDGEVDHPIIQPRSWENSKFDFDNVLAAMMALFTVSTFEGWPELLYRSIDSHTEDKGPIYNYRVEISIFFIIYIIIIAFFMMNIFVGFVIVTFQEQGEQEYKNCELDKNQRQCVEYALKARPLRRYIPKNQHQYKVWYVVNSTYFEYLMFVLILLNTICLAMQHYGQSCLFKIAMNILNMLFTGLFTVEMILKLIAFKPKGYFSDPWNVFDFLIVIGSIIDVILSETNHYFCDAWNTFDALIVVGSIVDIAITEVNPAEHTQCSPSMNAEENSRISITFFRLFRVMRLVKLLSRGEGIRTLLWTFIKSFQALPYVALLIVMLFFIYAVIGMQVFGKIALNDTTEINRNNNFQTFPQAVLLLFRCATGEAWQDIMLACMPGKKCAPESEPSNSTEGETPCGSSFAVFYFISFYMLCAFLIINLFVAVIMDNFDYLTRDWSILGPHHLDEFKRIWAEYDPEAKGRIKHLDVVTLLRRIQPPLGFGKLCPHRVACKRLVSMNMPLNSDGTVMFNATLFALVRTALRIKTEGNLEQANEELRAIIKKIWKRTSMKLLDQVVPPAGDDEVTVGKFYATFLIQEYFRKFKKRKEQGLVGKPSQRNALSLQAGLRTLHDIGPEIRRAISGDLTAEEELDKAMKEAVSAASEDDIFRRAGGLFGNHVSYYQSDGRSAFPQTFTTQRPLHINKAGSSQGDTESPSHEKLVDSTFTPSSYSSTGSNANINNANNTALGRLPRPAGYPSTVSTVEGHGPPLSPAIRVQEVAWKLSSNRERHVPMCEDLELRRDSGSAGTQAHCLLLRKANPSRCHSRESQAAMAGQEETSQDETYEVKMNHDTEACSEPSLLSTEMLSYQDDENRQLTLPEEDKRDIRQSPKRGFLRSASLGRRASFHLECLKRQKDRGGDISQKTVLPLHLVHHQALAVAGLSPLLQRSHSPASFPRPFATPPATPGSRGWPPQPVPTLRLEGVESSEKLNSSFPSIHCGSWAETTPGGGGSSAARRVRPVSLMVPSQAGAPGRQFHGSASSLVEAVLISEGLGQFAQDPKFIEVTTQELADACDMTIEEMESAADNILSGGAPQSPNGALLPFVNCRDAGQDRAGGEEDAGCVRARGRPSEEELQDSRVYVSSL
- assay procedure: In vitro assay L channel (FLIPR, KCl-induced calcium fluorescence)
- experimental setup: HEK293 cells expressing human Cav1.2 with β-2a and α2δ-1; 20 mM KCl depolarization; range stated for the group; read-out: IC50 (L channel antagonistic activity)
pIC50: −log10 of the molar value.
pIC50 overview
property name: pIC50

molecule="COc1ccc(OC)c2[nH]c(CCCN(C)CCC3(OC(=O)C(C)C)CC4CCC3C=C4c3ccccc3)nc12 (single isomer, unassigned)" assay_target="human Cav1.2 channel (Homo sapiens, UniProt Q13936)" value_observed="6.36 to 6.81"
molecule="COc1ccc(OC)c2[nH]c(CCCN(C)CC[C@]3(OC(=O)C(C)C)C[C@H]4CC[C@@H]3C=C4c3ccccc3)nc12 (racemic)" assay_target="human Cav1.2 channel (Homo sapiens, UniProt Q13936)" value_observed="6.36 to 6.81"
molecule="COc1ccc(OC)c2[nH]c(CCCN(C)CC[C@]3(OC(=O)C(C)C)C[C@H]4CCC[C@@H]3C=C4c3ccccc3)nc12 (racemic)" assay_target="human Cav1.2 channel (Homo sapiens, UniProt Q13936)" value_observed="6.36 to 6.81"

Source: patent US20110039905A1
